- System: S. pseudintermedius recombinant SrtA
- experimental.protocol: in vitro FRET-based functional assay of recombinant SrtA
- Format: biochemical, Staphylococcus pseudintermedius
- conditions: compared to buffer controls; averages from three independent experiments
property.label: inhibition of SrtA

1. O=S(=O)(O)c1ccc(N=Nc2ccccc2)cc1 [Compound 1847] = 50-80%
2. COc1ccc(N2CCN(S(=O)(=O)Cc3ccc(F)cc3)CC2)cc1 [STL223442] = 13.75%
3. C[N+](C)(C)CCSS(C)(=O)=O.[Br-] [MTSET, reference compound] = 57.5%

Attribution: patent US10676538B2
